- test details: GFP drop in mixed WT/humanized-ribosome E. coli culture – GFP/RFP fluorescence, OD600, single point, bacterial rRNA inhibitor project, primary screen (AID 720706)
- condition label: E. coli WT GFP vs humanized-ribosome RFP mutants, 24 h; measured here: OD600 growth, DMSO median 0, no signal -100
In all, about 350,000 compounds went through this assay and about 5,500 (1.6%) were called active. Only a selection was taken, and actives are over-represented in it overall.
test readout: OD600 change (%)
Provide only the numeric value, understood in %.

Record excerpt, results attached:
molecule: O=C(NNc1cc(Cl)cc(Cl)c1)c1c(F)cccc1Cl
value: -4.42

molecule: Brc1ccc2c(c1)[C@H]1OCC[C@H]1[C@@H](c1cccs1)N2
value: -30.6

molecule: CC(C)n1c(=S)[nH]c2cc(C(F)(F)F)ccc21
value: -3.6

molecule: O=C(NC(=S)Nc1ccc(Cl)cc1Cl)C1CC1
value: -11.5

molecule: COCCn1c(SCC(=O)Nc2ccc(F)cc2F)nc2c(c1=O)SCC2
value: -1.78

molecule: CSCC[C@H](NC(=O)N1CCn2c1nc1ccccc12)C(=O)NCc1ccc2c(c1)OCO2
value: -3.03

OD600 change for "Cc1cc(NC(=O)c2cc3ccccc3o2)no1" ?
5.97

OD600 change for "O=C1CN(Cc2ccccc2)C[C@H]2[C@H](c3ccc(-c4ccccc4)cc3)[C@@H](CO)N12" ?
-18

OD600 change for "CCCNC(=O)N(C)C[C@@H]1Oc2ncc(-c3cccc(C#N)c3)cc2C(=O)N([C@@H](C)CO)C[C@@H]1C" ?
14.1

OD600 change for "CCN(CC)CCn1c2c(c(SCC(=O)Nc3nc4ccccc4s3)nc1=O)CCCC2" ?
-9.96

OD600 change for "S=C(Nc1ccc(Cl)cc1Cl)N1CCCC1" ?
3.51

OD600 change for "CCN(CC)CCNC(=O)c1ccc(NC(=O)c2c(F)cccc2Cl)cc1" ?
-3.78

OD600 change for "S=C(Nc1ccc(Br)cc1Cl)N1CCC2(CC1)OCCO2" ?
-20.4

OD600 change for "CCS(=O)(=O)Nc1ccc2c(c1)C(=O)N(C)[C@@H]1CC[C@H](CC(=O)N3CCCCC3)O[C@@H]1CO2" ?
-4.1

OD600 change for "c1ccc(C(=NNc2nc3ccccc3s2)c2ccccn2)cc1" ?
-7.96

OD600 change for "CSCC[C@H](NC(=O)N1CCn2c1nc1ccccc12)C(=O)NC1CCCCC1" ?
-22.6

OD600 change for "COc1ccc2c3c(n(C)c2c1)[C@@H](CO)N(C(C)=O)CC31CCN(Cc2ccc(Cl)cc2)CC1" ?
-3.51

OD600 change for "COc1cccc(NC(=O)N[C@H]2C=C[C@@H](CC(=O)Nc3ccc(-c4ccccc4)cc3)O[C@@H]2CO)c1" ?
-10.6

OD600 change for "CCCNC(=O)N(C)C[C@@H]1Oc2ncc(C#CCc3ccccc3)cc2C(=O)N([C@@H](C)CO)C[C@H]1C" ?
-2.83

OD600 change for "CCOC(=O)c1sc(/N=C/C2=C(O)CC(C)(C)CC2=O)c(C(=O)OCC)c1C" ?
-5.5

OD600 change for "CCCn1c(=S)[nH]c2ccc(C(F)(F)F)cc21" ?
-18.3

OD600 change for CC(=O)NC(c1ccccc1)c1nc(-c2ccccc2C)cs1 (stereo not given) ?
1.11

OD600 change for "COc1cccc(S(=O)(=O)N2C[C@H](O)COC[C@H]3O[C@@H](CC(=O)N4CCN(c5ccccc5)CC4)CC[C@@H]32)c1" ?
-3.12

OD600 change for "O=C(NCc1ccc2c(c1)OCO2)c1c(O)nc2sccn2c1=O" ?
1.77

OD600 change for COc1cccc(C(NC(C)=O)c2nc(-c3cnc4ccccc4c3)cs2)c1 (stereo not given) ?
7.87

OD600 change for "C[C@@H](C(=O)N(C)C[C@H]1OCc2ccccc2-c2c(n(C)c3ccccc23)C(=O)N([C@@H](C)CO)C[C@@H]1C)c1ccccc1" ?
-4.37

OD600 change for "CN1c2ccc(Br)cc2[C@H]2[C@H](CCN2S(=O)(=O)c2ccc(F)cc2)[C@@H]1CO" ?
-75.9

OD600 change for O=C(Nc1ccc(C2CC2(Cl)Cl)cc1)c1cccc([N+](=O)[O-])c1 (stereo not given) ?
-19.1

OD600 change for "C[C@H]1CN(C)C(=O)c2cc(N(C)C)ccc2O[C@H]1CN(C)C(=O)OC(C)(C)C" ?
-2.56

OD600 change for "COc1ccc2c3c(n(C)c2c1)[C@@H](CO)NCC31CCN(CC2CC2)CC1" ?
22.6

OD600 change for "C[C@H]1CN([C@@H](C)CO)C(=O)c2cc(NS(C)(=O)=O)ccc2O[C@@H]1CN(C)S(=O)(=O)c1ccc(Cl)cc1" ?
0.615

OD600 change for "CCNC(=S)N1CCN(CCN=CC2=C(O)CC(C)(C)CC2=O)CC1" ?
0.25
